System: UACC-257
Assay: NCI tumour cell line growth inhibition, 48 h
Active and inactive are the calls of the source. Rule as the data show it: active = GI50 up to about 1.1 µM and inactive = higher.
MEASUREMENT_TYPE: GI50

* CCOC(=O)c1ccc(-n2nnc(C(N)=O)c2O)cc1 | > 100 µM (inactive)
* O=C1c2cc3c(cc2CC12Cc1ccc4c(c1C2=O)CCC4)CCCC3 (centres undefined) | > 100 µM (inactive)

In: Which measured GI50 value corresponds to C=CCCCCCCCC(O)C1C[C@H](O)C(CCCCC)O1 (some centres undefined) ?
Out: > 10 µM (inactive)

In: Similarly, C=C(/C=C/C=C(/CCC=C(C)C)COC(C)=O)[C@@H]1CC[C@]2([C@H](CCCO)/C(=C(/C)C=O)CC[C@]2(C)O)[C@@H]1O ?
Out: 17.7 µM (inactive)

In: Now consider NS(=O)(=O)c1nnc(NSc2ccc([N+](=O)[O-])cc2)s1 and answer again.
Out: > 100 µM (inactive)

In: Then this compound: O=c1c(C(c2ccc(/C=C/c3ccccc3)cc2)c2c(O)oc3ccccc3c2=O)c(O)oc2ccccc12
Out: 53.7 µM (inactive)

In: Repeat with COC(=O)/C=C(C)/C=C/c1cc(C(C)=O)c(C)o1
Out: > 100 µM (inactive)

In: Moving on to the next compound: COc1ccccc1N1C(=O)/C(=C\c2cccc(Oc3ccccc3)c2)SC1c1ccccc1 (centres undefined)
Out: 31.3 µM (inactive)

In: Input CC(C)CC1c2[nH]c3ccccc3c2C[C@H]2C(=O)NC(CCC(=O)OC(C)(C)C)C(=O)N12 (some centres undefined)
Out: 25.9 µM (inactive)
